Test: yeast display, Sf9 membrane polyspecificity reagent, FACS + sequencing; frameworks hold sequencing errors
VALUE TYPE: polyreactivity (PSR sort gate)

Here's what some known entries look like.
SEQUENCE TEXT	polyreactivity (PSR sort gate)
QVQLVESGGGLVQAGGSLRLSCAASGSIFLQNAMGWYRQAPGKERELVARITTSGGSTYYADSVKGRFTISRDNAKNTVYLPMNSQKPEDTAVYYCAVRSRRQRGGIRGFDYGGQGTQVTVSS	high polyreactivity
QVQLVESGGGLVQAGGSLRLSCAASGYIFGVYAMGWYRQAPGKERELVAAISIGGSTYYADSVKGPFTISRDNAKNTVYLQMNSLKPEDTAVYYCAARGWIRKTSSAYGYWGQGTQVTVSS	high polyreactivity
QVQLVESGGGLDQAGGSLRLSCAASGSTFLTNAMGGYRQAPGKEMELVAVISLISGPTYYADSVKVRFTISRDNAKNTVYLQMNRLKPEDTAVYYSATDPYWNSPYVKYDYWGQGTQVTVSS	high polyreactivity
QVQLVESGGGLVQAGGSLRLSCAASGITIPVYMGWYRQAPGKERELVASISTIGGTTYYADSVKGRFTISRDNAKNTVYLQMNSLKPEDTAVYYCAADHPWSWYDYWGQGTQVTVSS	low polyreactivity

Lab note: next sequence to report on.
Q) Tell me the measured polyreactivity (PSR sort gate) of "QGQLVESGGGLVQAGGSLRLSCAASGRIFYQNDMGWYIQAPGKERELVADIASGGSTYYADSVKGRFTISRDNAKNTVYLQMNSLKPEDTAVYYCASAVLYGDGWYYYWGQGTQVTVSS" , please.
A) low polyreactivity
